# TARGET_DESC: CD137 on Jurkat reporter cells (Promega kit CS196005) (UniProt Q07011 24-255, limits assumed)
# Sequence (Q07011 24-255 limits assumed): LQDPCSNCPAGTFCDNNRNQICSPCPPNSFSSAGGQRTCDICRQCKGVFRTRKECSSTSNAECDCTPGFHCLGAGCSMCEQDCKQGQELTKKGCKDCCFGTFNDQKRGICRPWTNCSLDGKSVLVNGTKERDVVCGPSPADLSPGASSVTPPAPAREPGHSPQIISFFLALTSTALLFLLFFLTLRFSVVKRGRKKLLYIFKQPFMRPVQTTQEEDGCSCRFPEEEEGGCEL
# EXPERIMENT_DESCRIPTION: cell-based or functional assay
Starred links: 1 amine or outer side, 2 acyl side, 3 side chain; linkers in the order of their positions; H or OH if unused. Positions of bridges follow the written chain, without caps; N, C: chain ends. Non-standard residues stand in square brackets, D forms with d. Chains are numbered I, II in the order given. No end group written: not given here. *: point of attachment. TATA = O=C(CC[*:1])N1CN(C(=O)CC[*:2])CN(C(=O)CC[*:3])C1; Dip = N[C@H](C(=O)O)C(c1ccccc1)c1ccccc1; 1Nal = N[C@@H](Cc1cccc2ccccc12)C(=O)O; Hyp = O=C(O)[C@@H]1C[C@@H](O)CN1; tBuAla = CC(C)(C)C[C@H](N)C(=O)O; Cba = N[C@@H](CC1CCC1)C(=O)O; Nle = CCCC[C@H](N)C(=O)O; Pent4ynoyl = C#CCCC(=O)*
Strictly below 0.2 nM in EC50 (nM), PC3 co-culture: met. Otherwise: not met.

1. BCY13053 (linker I:1-I:8-I:15 via TATA; linker II:1-II:8-II:15 via TATA (inferred); not fully specified (N-terminus, bridges); also: 1:2 complex: two copies of chain 2 (BCY8928) on the branched linker) peptide 1: C[Hyp][Cba]VNPLCL[Dip]P[dD]WTC[dA] peptide 2: Ac-C[tBuAla]PE[dK](Pent4ynoyl)PYCFADPY[Nle]CA : met
2. BCY13282 (linker I:3-I:10-I:17, II:1-II:8-II:15 via TATA (inferred); not fully specified (N-terminus, bridges); also: 1:2 complex: two BCY8928 chains on the linker) peptide 1: ADC[Hyp]LVNPLCLEP[dD]WTC peptide 2: Ac-C[tBuAla]PE[dK](Pent4ynoyl)PYCFADPY[Nle]CA : not met
3. BCY13273 (linker I:1-I:8-I:15 via TATA; linker II:1-II:8-II:15 via TATA (inferred); not fully specified (some residues, N-terminus); also: linker joins chain 1 to two chain 2 copies via PYA triazoles) peptide 1: C[Hyp]LVNPLCL[1Nal]PDWTC peptide 2: Ac-C[tBuAla]PE[dK](Pent4ynoyl)PYCFADPY[Nle]CA : met
4. BCY13048 (linker I:1-I:8-I:15 via TATA; linker II:1-II:8-II:15 via TATA (inferred); not fully specified (N-terminus, bridges); also: 1:2 complex: two copies of chain 2 (BCY8928) on the branched linker) peptide 1: C[Hyp]LVNPLCL[Dip]P[dD]WTC peptide 2: Ac-C[tBuAla]PE[dK](Pent4ynoyl)PYCFADPY[Nle]CA : met
5. BCY13049 (linker I:1-I:8-I:15, II:1-II:8-II:15 via TATA (inferred); not fully specified (N-terminus); also: linker joins chain 1 to two chain 2 copies via PYA triazoles) peptide 1: C[Hyp]LVNPLCLEP[dD]WTC[dA] peptide 2: Ac-C[tBuAla]PE[dK](Pent4ynoyl)PYCFADPY[Nle]CA : not met

These entries and their values trace back to patent US20230129258A1.
